# Tested on: Talaromyces marneffei
# Test Protocol: Antifungal activity against Penicillium marneffei at 35 degC after 48 hrs by broth dilution method
# Format: functional
# MIC listing for each entry below
Measured Parameter: MIC (µg/mL)

>>> quantitative_readout("Fc1cc(-c2cc(-c3nnc(COc4ccccc4Cl)o3)c3ccccc3n2)c(Cl)cc1Cl")
12.5
>>> quantitative_readout("Cc1cc(OCc2nnc(-c3cc(F)c(Cl)cc3Cl)o2)ccc1Cl")
25
>>> quantitative_readout("Cc1cc(OCc2nnc(-c3cc(-c4cc(F)c(Cl)cc4Cl)nc4ccccc34)o2)ccc1Cl")
12.5
>>> quantitative_readout("COC1=CC(=O)C[C@@H](C)[C@]12Oc1c(Cl)c(OC)cc(OC)c1C2=O [GRISEOFULVIN]")
6.25
>>> quantitative_readout("Fc1cc(-c2cc(-c3nnc(COc4ccc(Cl)cc4)o3)c3ccccc3n2)c(Cl)cc1Cl")
6.25
>>> quantitative_readout("Fc1cc(-c2cc(-c3nnc(COc4ccc(Cl)cc4Cl)o3)c3ccccc3n2)c(Cl)cc1Cl")
6.25
>>> quantitative_readout("Cc1ccccc1OCc1nnc(-c2cc(F)c(Cl)cc2Cl)o1")
25
>>> quantitative_readout("Cc1ccc(OCc2nnc(-c3cc(F)c(Cl)cc3Cl)o2)cc1")
6.25

The origin of these recorded values is ChEMBL document CHEMBL1149771.
